# Test target: T1, HLA-DR11 (HLA-DRB1*11:01) (human)
# T1 construct: mature; purified from homozygous EBV-transformed lymphoblastoid cells with antibody L243
# Assay protocol: competition ELISA vs biotin-HA 306-318;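 also: HLA and competitor incubated 24 to 72 h, maximal signal taken from wells lacking competitor, background from wells lacking HLA molecule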
No end group written: not given here.
Reported property: relative affinity

| Binder | Reported property | Result |
| --- | --- | --- |
| EQLQAKMPMKKEAKP-NH2 [CCNB1 54-68] | relative affinity | 1410 |
| PEIGDFAFVTDNTYT-NH2 [CCNB1 264-278] | relative affinity | 1670 |
| SKINAENKAKINMAG-NH2 [CCNB1 9-23] | relative affinity | 490 |
| NTYTKHQIRQMEMKI-NH2 [CCNB1 275-289] | relative affinity | 4 |
| DRFMQNNCVPKKMLQ-NH2 [CCNB1 231-245] | relative affinity | 2000 |

Each recorded value in this set is attributed to patent US20180086804A1.
